Examples of compounds with documented Activity follow.
system: MCF7; assay: Estrogenic activity in human MCF7 cells assessed as cell proliferation at 1 uM by MTS assay relative to basal level; type: ADME, cell-based; conditions: mcf7, 1 µM
measured_metric: Activity (%)

line_notation | units_label | observed_result
O=C(c1ccc(N(CCO)Cc2ccccc2)cc1)N1CCc2ccc(O)cc2C1 | % | 34.6
CCN(Cc1ccc(Br)cc1)c1cccc(C(=O)N2CCc3ccc(O)cc3C2)c1 | % | 5.5
CCN(Cc1ccccn1)c1ccc(C(=O)N2CCc3ccc(O)cc3C2)cc1 | % | 84
CCN(Cc1ccc(F)cc1)c1ccc(C(=O)N2CCc3ccc(O)cc3C2)cc1 | % | 4.8
CCN(Cc1ccccn1)c1cccc(C(=O)N2CCc3ccc(O)cc3C2)c1 | % | 87.3
O=C(c1cccc(N(CCO)Cc2ccccc2)c1)N1CCc2ccc(O)cc2C1 | % | 12
CCN(Cc1ccc(Br)cc1)c1ccc(C(=O)N2CCc3ccc(O)cc3C2)cc1 | % | 76.7
O=C(c1cccc(N(Cc2ccccc2)Cc2ccco2)c1)N1CCc2ccc(O)cc2C1 | % | 80.7
CN(CCN1CCCCC1)c1cccc(C(=O)N2CCc3ccc(O)cc3C2)c1 | % | 5.3
CCN(Cc1ccc(F)cc1)c1cccc(C(=O)N2CCc3ccc(O)cc3C2)c1 | % | 101.3
CCN(Cc1cccc(Br)c1)c1cccc(C(=O)N2CCc3ccc(O)cc3C2)c1 | % | 8.5
CCCN(Cc1ccccc1)c1cccc(C(=O)N2CCc3ccc(O)cc3C2)c1 | % | 20.8
CN(C)CCCN(Cc1ccccc1)c1cccc(C(=O)N2CCc3ccc(O)cc3C2)c1 | % | 5.4
CCN(Cc1cccnc1)c1cccc(C(=O)N2CCc3ccc(O)cc3C2)c1 | % | 0
CN(C)CCCN(Cc1ccccc1)c1ccc(C(=O)N2CCc3ccc(O)cc3C2)cc1 | % | 25.9
CCN(Cc1ccncc1)c1ccc(C(=O)N2CCc3ccc(O)cc3C2)cc1 | % | 0
CCN(Cc1ccncc1)c1cccc(C(=O)N2CCc3ccc(O)cc3C2)c1 | % | 12.8
O=C(c1ccc(N(Cc2ccccc2)Cc2ccco2)cc1)N1CCc2ccc(O)cc2C1 | % | 7.7
CN(CCN1CCCCC1)c1ccc(C(=O)N2CCc3ccc(O)cc3C2)cc1 | % | 12.2
CCN(Cc1cccnc1)c1ccc(C(=O)N2CCc3ccc(O)cc3C2)cc1 | % | 0
O=C(c1ccc(N2CCc3ccccc3C2)cc1)N1CCc2ccc(O)cc2C1 | % | 6.3

---

tested on: MCF7; test: Estrogenic activity in human MCF7 cells assessed as cell proliferation at 0.01 uM by MTS assay relative to basal level; format: ADME, cell-based; conditions: mcf7, 0.01 µM
Decide by Activity: equal to or exceeding 2% means criterion met, less means criterion not met.

line_notation | discrete_label
O=C(c1cccc(N2CCc3ccccc3C2)c1)N1CCc2ccc(O)cc2C1 | criterion not met
CCN(Cc1ccc(F)cc1)c1cccc(C(=O)N2CCc3ccc(O)cc3C2)c1 | criterion met
O=C(c1ccc(N2CCc3ccccc3C2)cc1)N1CCc2ccc(O)cc2C1 | criterion not met
CN(C)CCCN(Cc1ccccc1)c1cccc(C(=O)N2CCc3ccc(O)cc3C2)c1 | criterion not met
CN(C)CCCN(Cc1ccccc1)c1ccc(C(=O)N2CCc3ccc(O)cc3C2)cc1 | criterion met
CCCN(Cc1ccccc1)c1cccc(C(=O)N2CCc3ccc(O)cc3C2)c1 | criterion not met
CC(C)CCN(CCC(C)C)c1cccc(C(=O)N2CCc3ccc(O)cc3C2)c1 | criterion not met
CN(C)CCN(CCN(C)C)c1cccc(C(=O)N2CCc3ccc(O)cc3C2)c1 | criterion not met
CN(CCCN1CCCCC1)c1ccc(C(=O)N2CCc3ccc(O)cc3C2)cc1 | criterion not met
CCN(Cc1ccncc1)c1ccc(C(=O)N2CCc3ccc(O)cc3C2)cc1 | criterion not met
CCN(Cc1ccccn1)c1cccc(C(=O)N2CCc3ccc(O)cc3C2)c1 | criterion met
CCN(Cc1ccc(Br)cc1)c1cccc(C(=O)N2CCc3ccc(O)cc3C2)c1 | criterion not met
CN(C)CCN(CCN(C)C)c1ccc(C(=O)N2CCc3ccc(O)cc3C2)cc1 | criterion not met
O=C(c1ccc(N(CCO)Cc2ccccc2)cc1)N1CCc2ccc(O)cc2C1 | criterion met
CCN(Cc1ccccn1)c1ccc(C(=O)N2CCc3ccc(O)cc3C2)cc1 | criterion met
O=C(c1ccc(N(Cc2ccccc2)Cc2ccco2)cc1)N1CCc2ccc(O)cc2C1 | criterion not met
O=C(c1cccc(N(Cc2ccccc2)Cc2ccco2)c1)N1CCc2ccc(O)cc2C1 | criterion met
O=C(c1cccc(N(CCO)Cc2ccccc2)c1)N1CCc2ccc(O)cc2C1 | criterion not met
CN(C)CCN(Cc1ccccc1)c1ccc(C(=O)N2CCc3ccc(O)cc3C2)cc1 | criterion met
CCN(Cc1ccc(F)cc1)c1ccc(C(=O)N2CCc3ccc(O)cc3C2)cc1 | criterion not met
CCN(Cc1cccc(Br)c1)c1ccc(C(=O)N2CCc3ccc(O)cc3C2)cc1 | criterion not met
CCN(Cc1ccncc1)c1cccc(C(=O)N2CCc3ccc(O)cc3C2)c1 | criterion met
CCN(Cc1cccc(Br)c1)c1cccc(C(=O)N2CCc3ccc(O)cc3C2)c1 | criterion not met
CN(CCCN1CCCCC1)c1cccc(C(=O)N2CCc3ccc(O)cc3C2)c1 | criterion met
CC(C)CCN(CCC(C)C)c1ccc(C(=O)N2CCc3ccc(O)cc3C2)cc1 | criterion not met
CN(C)CCN(Cc1ccccc1)c1cccc(C(=O)N2CCc3ccc(O)cc3C2)c1 | criterion met
CCN(Cc1cccnc1)c1ccc(C(=O)N2CCc3ccc(O)cc3C2)cc1 | criterion not met
CCN(Cc1cccnc1)c1cccc(C(=O)N2CCc3ccc(O)cc3C2)c1 | criterion not met
CN(CCN1CCCCC1)c1cccc(C(=O)N2CCc3ccc(O)cc3C2)c1 | criterion not met

---

Biological target: Steryl-sulfatase (Homo sapiens) (UniProt P08842)
Sequence (whole entry): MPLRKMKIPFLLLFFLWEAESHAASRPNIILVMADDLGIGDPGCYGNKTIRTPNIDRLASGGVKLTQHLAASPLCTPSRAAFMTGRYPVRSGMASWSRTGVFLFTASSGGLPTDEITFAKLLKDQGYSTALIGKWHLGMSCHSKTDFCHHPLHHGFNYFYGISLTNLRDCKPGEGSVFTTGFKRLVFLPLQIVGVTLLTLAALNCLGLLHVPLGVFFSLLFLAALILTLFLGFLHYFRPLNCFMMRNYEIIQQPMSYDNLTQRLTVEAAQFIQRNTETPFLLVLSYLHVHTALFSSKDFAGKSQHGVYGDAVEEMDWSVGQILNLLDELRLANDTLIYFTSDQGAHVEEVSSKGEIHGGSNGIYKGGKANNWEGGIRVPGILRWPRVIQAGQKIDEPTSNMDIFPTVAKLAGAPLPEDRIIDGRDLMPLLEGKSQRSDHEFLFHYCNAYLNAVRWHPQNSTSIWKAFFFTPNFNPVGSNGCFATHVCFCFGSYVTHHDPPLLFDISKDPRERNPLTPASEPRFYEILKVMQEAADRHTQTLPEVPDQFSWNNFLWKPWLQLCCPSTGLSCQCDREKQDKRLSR
Experiment: Inhibition of STS (unknown origin) expressed in HEK-293 cells assessed as transformation of [3H]-E1S into E1 at 1 uM by […]
Assay type: cell-based
Settings: HEK293
# inhibition >= 60% gives label 1, anything below gives label 0

line_notation | discrete_label
CCN(Cc1ccc(F)cc1)c1cccc(C(=O)N2CCc3ccc(OS(N)(=O)=O)cc3C2)c1 | label 1
CCN(Cc1cccc(Br)c1)c1ccc(C(=O)N2CCc3ccc(OS(N)(=O)=O)cc3C2)cc1 | label 1
CN(C)CCN(Cc1ccccc1)c1ccc(C(=O)N2CCc3ccc(OS(N)(=O)=O)cc3C2)cc1 | label 0
NS(=O)(=O)Oc1ccc2c(c1)CN(C(=O)c1ccc(N(CCCO)Cc3ccccc3)cc1)CC2 | label 1
NS(=O)(=O)Oc1ccc2c(c1)CN(C(=O)c1cccc(N3CCC(N4CCCCC4)CC3)c1)CC2 | label 0

---

system: MCF7; experiment: Estrogenic activity in human MCF7 cells assessed as cell proliferation at 0.1 uM by MTS assay relative to basal level; format: ADME, cell-based; conditions: mcf7, 0.1 µM
Examples of compounds with documented Activity follow.

line_notation | Activity (%)
O=C(c1ccc(N(CCCO)Cc2ccccc2)cc1)N1CCc2ccc(O)cc2C1 | 0
CN(CCCN1CCCCC1)c1ccc(C(=O)N2CCc3ccc(O)cc3C2)cc1 | 0
O=C(c1ccc(N(Cc2ccccc2)Cc2ccco2)cc1)N1CCc2ccc(O)cc2C1 | 0
CCN(Cc1ccccn1)c1ccc(C(=O)N2CCc3ccc(O)cc3C2)cc1 | 0
CCN(Cc1ccncc1)c1ccc(C(=O)N2CCc3ccc(O)cc3C2)cc1 | 0
CN(C)CCCN(Cc1ccccc1)c1cccc(C(=O)N2CCc3ccc(O)cc3C2)c1 | 0
CCN(Cc1ccncc1)c1cccc(C(=O)N2CCc3ccc(O)cc3C2)c1 | 0
CCN(Cc1ccccn1)c1cccc(C(=O)N2CCc3ccc(O)cc3C2)c1 | 58.4
CN(C)CCN(Cc1ccccc1)c1ccc(C(=O)N2CCc3ccc(O)cc3C2)cc1 | 6.3
CN(CCN1CCCCC1)c1cccc(C(=O)N2CCc3ccc(O)cc3C2)c1 | 0
CCN(Cc1cccc(Br)c1)c1ccc(C(=O)N2CCc3ccc(O)cc3C2)cc1 | 0
CC(C)CCN(CCC(C)C)c1ccc(C(=O)N2CCc3ccc(O)cc3C2)cc1 | 0
O=C(c1ccc(N(CCO)Cc2ccccc2)cc1)N1CCc2ccc(O)cc2C1 | 14.8
CN(CCCN1CCCCC1)c1cccc(C(=O)N2CCc3ccc(O)cc3C2)c1 | 2.5
O=C(c1cccc(N(CCO)Cc2ccccc2)c1)N1CCc2ccc(O)cc2C1 | 3
O=C(c1ccc(N2CCc3ccccc3C2)cc1)N1CCc2ccc(O)cc2C1 | 1.7
O=C(c1cccc(N(CCCO)Cc2ccccc2)c1)N1CCc2ccc(O)cc2C1 | 14.2
CCN(Cc1ccc(Br)cc1)c1cccc(C(=O)N2CCc3ccc(O)cc3C2)c1 | 0
CN(C)CCCN(Cc1ccccc1)c1ccc(C(=O)N2CCc3ccc(O)cc3C2)cc1 | 18.3
CC(C)CCN(CCC(C)C)c1cccc(C(=O)N2CCc3ccc(O)cc3C2)c1 | 0
CCN(Cc1cccc(Br)c1)c1cccc(C(=O)N2CCc3ccc(O)cc3C2)c1 | 0
